Biological target: panel of more than 300 wild-type and mutant kinases (313 kinase panel) (Homo sapiens, UniProt P53667)
Assay: Kinase profiling in a biochemical assay panel (mobility shift assays and ELISA), %-inhibition at 1 μM; selectivity entropy
Details: kinase LIMK1; compound at 1 μM
assayEndpoint: %-inhibition of LIMK1
The number alone won't do; follow it with the unit.

Entry `CCCS(=O)(=O)Nc1ccc(F)c(C(=O)c2c[nH]c3ncc(-c4ccc(Cl)cc4)cc23)c1F` ; %-inhibition of LIMK1 = 45%

Entry `COc1cc(Nc2c(C#N)cnc3cc(OCCCN4CCN(C)CC4)c(OC)cc23)c(Cl)cc1Cl` ; %-inhibition of LIMK1 = -7%

Entry `O=S(=O)(c1cccc2cnccc12)N1CCCNCC1` ; %-inhibition of LIMK1 = -7%

Entry `CC(=O)Nc1cccc(-n2c(=O)n(C3CC3)c(=O)c3c(Nc4ccc(I)cc4F)n(C)c(=O)c(C)c32)c1` ; %-inhibition of LIMK1 = -1.84%

Entry `COc1cc2c(Nc3ccc(Br)cc3F)ncnc2cc1OCC1CCN(C)CC1` ; %-inhibition of LIMK1 = 12%

Entry `N#CC[C@H](C1CCCC1)n1cc(-c2ncnc3[nH]ccc23)cn1` ; %-inhibition of LIMK1 = 60%

Entry `CNC(=O)c1cc(Oc2ccc(NC(=O)Nc3ccc(Cl)c(C(F)(F)F)c3)c(F)c2)ccn1` ; %-inhibition of LIMK1 = 66%

Entry COc1cc2nccc(Oc3ccc(NC(=O)C4(C(=O)Nc5ccc(F)cc5)CC4)cc3)c2cc1OC [cabozantinib] ; %-inhibition of LIMK1 = 51%
